test.protocol: NCI Yeast Anticancer Drug Screen. Data for the rad50 strain (AID 155);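 note: 0% = growth of vehicle-only cultures of the same strain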
details: S. cerevisiae rad50 strain growth inhibition; at 50.0 µM; stronger effect = higher value
Compounds without any hit were thinned out: in the full panel of roughly 79,000, 15% have a hit. Active and inactive are the calls of the source. Cut-off read from the data, not from the text of the source: active = growth inhibition above about 70%; inactive = the rest.
observed.property: growth inhibition

> print(dat)
                                   compound  observed.property     observed.value
1             CNc1ncn(-c2c(C)cccc2C)c(=O)n1  growth inhibition   -2.5% (inactive)
2  CCCCCC(=O)Cc1cc(O)cc2c1C(=O)Oc1cc(O)c(C(=O)O)c(CCCCC)c1O2  growth inhibition   26.1% (inactive)
3  CCCCCCCCCC(CC(OC)OCC)OC (centres undefined)  growth inhibition   10.7% (inactive)
4                        CC(=O)Oc1cccc(C)c1  growth inhibition  -20.6% (inactive)

* * *

test.protocol: NCI Yeast Anticancer Drug Screen. Data for the sgs1 mgt1 strain (AID 161);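 note: 0% = growth of cultures given vehicle only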
details: S. cerevisiae sgs1 mgt1 strain, at 50.0 µM
Compounds without any hit were thinned out: in the full panel of roughly 79,000, 15% have a hit. Calls of active or inactive are those of the source. No stated cut-off is given here; in the data, active means growth inhibition above about 70%; inactive means the rest.
Classes used: active, inactive

> print(dat)
                                smiles.code  answer.label
1       O=C1/C(=C/c2ccccc2)CC/C1=C\c1ccccc1      inactive
2  CN(c1ncc(Cc2cnc(N(C)C3CCN(Cc4ccccc4)CC3)nc2)cn1)C1CCN(Cc2ccccc2)CC1      inactive
3  O=c1c2c(oc(=Nc3ccccc3)n1-c1ccccc1)CC1(CCCCC1)C2      inactive
4                             C=C(CBr)CCCCC      inactive
5  Oc1ccc(Br)cc1/C=N\NC(=S)Nc1ccc2cn[nH]c2c1      inactive
6  CCCCCC(=O)OC[n+]1ccc2c(C)c3[nH]c4ccc(OC)cc4c3c(C)c2c1        active

* * *

Readings of growth inhibition for the listed compounds
test.protocol: NCI Yeast Anticancer Drug Screen. Data for the bub3 strain (AID 167)
details: S. cerevisiae bub3 mutant strain, at 50.0 µM, stronger effect = higher value
Experimental: Growth inhibition of yeast strains with defined genetic alterations is measured as a screen for potential anti-cancer activity. Selected strains with alterations in DNA damage repair or cell cycle control were exposed to compounds and growth inhibition was measured relative to vehicle treated controls. The strain used in this assay is bub3
About 79,000 compounds went through this panel and 15% of them were active in at least one assay; those are over-represented in the sample as a whole.
observed.property: growth inhibition (%)

> print(dat)
                                   compound  observed.property  observed.value
1  C(=C\c1ccc(-c2ccccc2)cc1)/c1ccc(-c2ccccc2)cc1  growth inhibition           -16.7
2                   CN(C)C(=S)/N=C(\N)N(C)C  growth inhibition             1.7
3  O=C(NC(=O)c1ccccc1)OC(c1ccccc1)C1CO1 (stereo unspecified)  growth inhibition           -34.1
4  CC1=NN(C(=O)c2ccccc2O)C(=O)/C1=C/c1ccc(O)cc1  growth inhibition           -11.8
5  O=C1OC(c2cccc([N+](=O)[O-])c2)=N/C1=C\c1ccccc1  growth inhibition            15.3
6  CC(C)CC(CN(C)C)C(=O)/C=C/c1ccccc1 (stereo unspecified)  growth inhibition            11.8

* * *

test.protocol: NCI Yeast Anticancer Drug Screen. Data for the rad50 strain (AID 155);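 note: 0% = growth of vehicle-only cultures of the same strain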
details: S. cerevisiae rad50 strain growth inhibition; at 50.0 µM; stronger effect = higher value
Compounds without any hit were thinned out: in the full panel of roughly 79,000, 15% have a hit.
Group membership follows growth inhibition per the scheme 0: < -10%; 1: ≥ -10% and < 10%; 2: ≥ 10%

> print(dat)
                                    compound  answer.label
 1        Nc1nc(N)nc(CNc2c(Br)cc(Br)cc2Br)n1             2
 2     Cc1cccc(NC(=O)Oc2ccc(Nc3ccccc3)cc2)c1             1
 3  C/C=C(\C)C(=O)OC1CC(C)(O)C(=O)C(OC(=O)/C(C)=C/C)C2(C)CCC(O)(C(C)C)C12 (configuration not stated)             0
 4     CCCCCCCCCCCCCCCCCCSCCCCCCCCCCCCCCCCCC             2
 5  CNC1NC(=O)c2ccccc2N1Cc1ccc(F)cc1 (configuration not stated)             1
 6  Cc1ccc(C(=O)OC2C(OC(=O)Nc3ccccc3)OC(COC(=O)c3ccccc3)C2OC(=O)c2ccccc2)cc1 (configuration not stated)             1
 7  COP(=O)(OC)C(Cc1cn(C(C)=O)c2ccccc12)C(=O)O (configuration not stated)             0
 8  COC(=O)CC1(O)C(C=C(C)C)C(C(=O)OC)C(=O)C(C(=O)OC)C1C(=O)OC (configuration not stated)             0
 9      O=C(/C=C/c1ccccc1Cl)c1ccc(Cl)c(Cl)c1             2
10              ClC(Cl)(Cl)c1ccc(C2OCCO2)cc1             0
11  CCOC(=O)C(NC(=O)c1ccccc1)(N1CCOCC1)C(F)(F)F (configuration not stated)             2
12               CC(=O)Nc1c(C)ccc(C)c1C(=O)O             1

* * *

test.protocol: NCI Yeast Anticancer Drug Screen. Data for the bub3 strain (AID 167)
details: S. cerevisiae bub3 mutant strain, at 50.0 µM
Compounds without any hit were thinned out: in the full panel of roughly 79,000, 15% have a hit. Activity calls are given as the source filed them. No stated cut-off is given here; in the data, active means growth inhibition above about 70%; inactive means the rest.
Classes used: 1 (yes) = active, 0 (no) = inactive

compound	answer.label
O=C1N=C(C=c2ccc(=Cc3[nH]c(=O)[nH]c3O)cc2)C(=O)N1	0 (no)
CC(C)=C(Cl)c1c(C)cc(C)c(CC(N)=O)c1C	0 (no)
CCC(C(N)=O)C(C)(C)C (stereo not drawn)	0 (no)
c1ccc(CNC(c2ccccc2)C(NCc2ccccc2)c2ccccc2)cc1 (stereo not drawn)	0 (no)
CC(Oc1cc2oc(=O)cc(-c3ccccc3)c2cc1Cl)C(=O)O (stereo not drawn)	0 (no)
COC(=O)c1cc(CC2Cc3cc4c(cc3C2)CCC4)cc2c1CCC2	0 (no)
CCCCCCCCSCCCC(=O)O	0 (no)
c1ccc(CN2CCC3(N4CCOCC4)C(C2)N=NN3c2ccccc2)cc1 (stereo not drawn)	0 (no)
CCC1NC(=O)C(NC(=O)c2ncccc2O)C(C)OC(=O)C(c2ccccc2)NC(=O)C2CC(=O)CCN2C(=O)C(Cc2ccccc2)N(C)C(=O)C2CCCN2C1=O (stereo not drawn)	0 (no)
O=C1CC(c2ccccc2)=NCCN1	0 (no)
COc1ccc(NC(=O)Nc2cc(C(F)(F)F)ccc2Cl)cc1	0 (no)
COc1cc2c(SCCN(C)C)nc3ccccc3c2c2ccccc12	1 (yes)
Nc1cc(S(=O)(=O)O)nc(N)[n+]1[O-]	0 (no)
COc1ccccc1C1C(C(=O)Nc2ccccc2)=C(C)NC(C)=C1C(=O)Nc1ccccc1	0 (no)
N#CCCC1C(=O)CCCC1=O	0 (no)
O=c1[nH]c(O)c(/C=N/C(=S)NCc2ccccc2)c(=O)[nH]1	0 (no)
CSCC(=O)c1ccccc1	0 (no)
COc1ccc(C(CN)c2ccc(N)cc2)cc1 (stereo not drawn)	0 (no)
CC1C/C=C2\CSC(NC(=O)/C3=C\N(C/C=C/C=C/C(O)CC(O)CC(=O)N3)C2=O)C(=O)O1 (stereo not drawn)	0 (no)
O=c1c(-c2ccccc2)c2oc(c1-c1ccccc1)CSCc1cccc(c1)CSC2	0 (no)
Fc1ccc(C2SCc3nc4ccccc4n32)cc1F (stereo not drawn)	0 (no)
CCOC(=O)c1c(C)c(=O)cnc2c(C#N)cnn12	0 (no)
O=C(OCCN1CCOCC1)C1C[C@@H](O)CN1C(=O)c1ccc2c(c1)OCO2 (stereo partly drawn)	0 (no)
CCCCCCCSc1nc2ccc(N=Cc3ccccc3O)cc2s1	0 (no)
Cc1ccc(S(=O)(=O)/N=C/[N-][n+]2cccc(C)c2)cc1	0 (no)
O=C1C=CC(Nc2ccc(Cl)c(Cl)c2)C1Nc1ccc(Cl)c(Cl)c1 (stereo not drawn)	0 (no)
COc1cc(C(=O)N2C[C@H](O)C[C@H]2C(=O)O)cc(OC)c1OC	0 (no)
CC1=C(CCC(C)CO)OC2CC3C4CC=C5CC(O)CCC5(C)C4CCC3(C)C12 (stereo not drawn)	0 (no)
Nc1c(Cl)cccc1C(=O)c1ccccc1C(=O)O	0 (no)
Cc1[nH]n(-c2nc(-c3ccccc3)cc(=O)[nH]2)c(=O)c1CCO	0 (no)
COC(=O)c1cc(C)n(C)c(=O)c1CNS(=O)(=O)c1ccc(C)cc1	0 (no)
O=C1CSSCC(=O)NCCCN1	0 (no)
CC(=O)NC(N)=O	0 (no)
O=C1C2CCCC3CCCC(C(=O)N1NC1CCCCC1)C32 (stereo not drawn)	0 (no)
COC(=O)Nc1nc2ccc(-n3c(C)nc4ccccc4c3=O)cc2[nH]1	0 (no)
COc1cccc2cc(C(C)=O)c(=O)oc12	0 (no)
O=c1[nH]c2ccccc2c(O)c1-c1ccccc1	0 (no)
Nc1ccc(N2CCN(c3ccc(N)cc3)CC2)cc1	0 (no)
CN1C(=O)/C(=N/N(c2ccccc2)c2ccccc2)c2ccccc21	0 (no)
Cc1cccc(C(N)=O)c1	0 (no)
CC(C)CCc1ccc(O)cc1	0 (no)
O=C(O)c1c[nH]c2c(ccc3[nH]cc(C(=O)O)c(=O)c32)c1=O	0 (no)
CN1C(C)(C)CC(O)(C(O)(c2ccccc2)c2ccccc2)CC1(C)C	0 (no)
